Here the recorded viability is given for each entry.
# assayDetails: ovarian cancer cell viability with rucaparib, profiling panel, oncology-focused library, rucaparib conditional (AID 1508598)
# conditionDetails: patient-derived ovarian cancer cells, CellTiter-Glo viability, 144 h; at 0.0195 µM; OCI-C5x cells; without rucaparib; hits give low values
Activity calls are given as the source filed them.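 The calls were made as follows: active = normalized viability below 100% at a tested concentration; inactive = the rest.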

Worked examples follow.
| molecule | recordedMeasurement |
| --- | --- |
| O=c1cc(-c2cccc3c2Sc2ccccc2S3)oc(N2CCOCC2)c1 | 132% (inactive) |
| NC(=O)Nc1sc(-c2ccc(F)cc2)cc1C(N)=O | 108% (inactive) |
| CC(NC(=O)c1ccccc1N=Cc1c(O)ccc2ccccc12)c1ccccc1 (configuration not stated) | 119% (inactive) |

[Q] Looking for the measured viability of "Nc1nc(F)nc2c1ncn2[C@@H]1O[C@H](COP(=O)(O)O)[C@@H](O)[C@@H]1O" , can you help?
[A] 111% (inactive)

[Q] So what does the record say about viability for "Cc1ccc(S(=O)(=O)/C=C/C#N)cc1" ?
[A] 117% (inactive)

[Q] Form field: reported viability of "O=C(O)c1ccc(-c2c[nH]c3ncc(-c4ccccc4)cc23)cc1C1CCCC1"
[A] 115% (inactive)

[Q] Entry "O=c1[nH]c(-c2ccc(C(F)(F)F)cc2)nc2c1CSCC2" : reported viability = ?
[A] 102% (inactive)
